Biological target: GluD2 (Mus musculus, UniProt Q61625, A654T/I677C)
Construct: pcDNA3-GluD2 expressed in HEK tsA201 cells, conjugated with MAGu
Sequence (Q61625 24-1007 A654T/I677C): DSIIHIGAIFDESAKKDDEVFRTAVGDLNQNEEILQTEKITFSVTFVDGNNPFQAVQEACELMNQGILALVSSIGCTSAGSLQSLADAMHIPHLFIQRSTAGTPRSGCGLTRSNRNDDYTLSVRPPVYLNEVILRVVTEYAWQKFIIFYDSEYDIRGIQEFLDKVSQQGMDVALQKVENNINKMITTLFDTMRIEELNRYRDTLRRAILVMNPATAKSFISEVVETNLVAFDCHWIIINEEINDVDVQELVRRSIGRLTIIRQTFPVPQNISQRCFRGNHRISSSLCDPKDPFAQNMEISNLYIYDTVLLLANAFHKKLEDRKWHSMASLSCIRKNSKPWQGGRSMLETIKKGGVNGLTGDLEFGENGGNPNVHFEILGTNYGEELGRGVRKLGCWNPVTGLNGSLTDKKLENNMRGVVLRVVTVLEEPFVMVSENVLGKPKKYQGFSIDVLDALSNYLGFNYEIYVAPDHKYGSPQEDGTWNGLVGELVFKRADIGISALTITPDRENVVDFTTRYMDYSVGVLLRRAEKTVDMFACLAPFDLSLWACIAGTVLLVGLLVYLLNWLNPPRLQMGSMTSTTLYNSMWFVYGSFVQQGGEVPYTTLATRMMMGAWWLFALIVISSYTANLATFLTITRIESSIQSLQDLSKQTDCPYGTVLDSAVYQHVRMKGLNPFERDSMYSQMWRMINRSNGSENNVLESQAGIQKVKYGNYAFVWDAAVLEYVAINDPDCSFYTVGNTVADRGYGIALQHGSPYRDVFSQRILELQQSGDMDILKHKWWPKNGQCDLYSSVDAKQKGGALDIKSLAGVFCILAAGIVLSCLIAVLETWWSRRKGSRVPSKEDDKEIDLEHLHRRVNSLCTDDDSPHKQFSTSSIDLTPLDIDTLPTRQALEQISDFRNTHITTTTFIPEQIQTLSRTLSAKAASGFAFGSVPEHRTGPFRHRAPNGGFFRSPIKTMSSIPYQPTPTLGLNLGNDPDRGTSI
Test: whole-cell patch-clamp dose-response ([…]) under […] nm light; […] under […] nm
observable: pIC50
A value of pIC50 is the negative decimal logarithm of a concentration given in moles per litre.

Q: Return pIC50 measured with GluD2 (Mus musculus, UniProt Q61625, A654T/I677C) given this compound: `N=C(N)c1ccc(OCCCCCOc2ccc(C(=N)N)cc2)cc1`
Ans: 5.29

// provenance: paper PMC7679134
